Assay: Dynamic light scattering (DLS), hydrodynamic size of peptides in solution
Type: physicochemical
Conditions: 10 μg/mL in PBS, 25° C.
Method: FIG. 5. Analysis of the hydrodynamic size of CD6-derived peptides in solution. The dynamic light scattering (DLS) analysis of the hydrodynamic diameter of CD6 (PD1, PD2, PD3, and Pcons) and DMBT-1/SAG (pbs1) derived peptides (10 μg/mL) in PBS is shown. The y axis represents the relative intensity of the scattered light; the x axis denotes the hydrodynamic diameter of the particles present in the solution. One representative experiment of four performed is shown (left). […]
measure: hydrodynamic size, second peak

>>> observed_measurement("GRVEVLYRGSW (DMBT-1.pbs1) [DMBT1.pbs1, reference compound]")
"617±4 nm"
>>> observed_measurement("GQVEVHFRGVW (CD6.PD3)")
"5151±7 nm"
>>> observed_measurement("GRVEVLFRGSW (CD6 Pcon) [CD6.cons, reference compound]")
"5493±7 nm"
>>> observed_measurement("GTVEVRLEASW [CD6.PD1]")
"1484±8 nm"

* * *

Assay: Solid phase binding assay (ELISA) of biotin-labeled peptides to immobilized LTA
Design: species or system S. aureus
Settings: biotin-labeled peptide 5-20 μg/mL; LTA 5 μg/mL coated
Protocol: FIG. 3. Binding of biotin-labeled CD6-derived peptides to immobilized PAMPs from Gram- and Gram+ origin. […] Following overnight incubation at 4° C. bound peptides or proteins were developed by addition of horseradish peroxidase (HRP)-labeled streptavidin and 3,3′,5,5′-tetramethylbenzidine (TMB) substrate and further readings at OD 405-620 nm. Results are expressed as mean±SD of duplicates from one representative experiment of three performed. […]
measure: binding to immobilized LTA (ELISA)

>>> observed_measurement("GRVEVLFRGSW (CD6 Pcon) [CD6.cons, reference compound]")
"dose-dependent binding"
>>> observed_measurement("GRVEVLYRGSW (DMBT-1.pbs1) [DMBT1.pbs1, reference compound]")
"dose-dependent binding"

* * *

experiment: Intrinsic tryptophan fluorescence binding, apparent Kd for Re-LPS; set-up: species or system Salmonella minnesota serotype Re 595; conditions: PBS, peptide 10 μg/mL, Hill fit
pKd: −log10 of the molar value.
measure: pKd

>>> observed_measurement("GRVEMLEHGEW [CD6.PD2]")
7.46
>>> observed_measurement("GTVEVRLEASW [CD6.PD1]")
8.46

* * *

assay: Solid phase binding assay (ELISA) of biotin-labeled peptides to immobilized LPS; design: species or system E. coli; conditions: biotin-labeled peptide 5-20 μg/mL; LPS 5 μg/mL coated
measure: binding to immobilized LPS (ELISA)

>>> observed_measurement("GRVEVLYRGSW (DMBT-1.pbs1) [DMBT1.pbs1, reference compound]")
"dose-dependent binding"
>>> observed_measurement("GRVEVLFRGSW (CD6 Pcon) [CD6.cons, reference compound]")
"dose-dependent binding"

* * *

experiment: Dynamic light scattering (DLS), hydrodynamic size of peptides in solution; assay type: physicochemical; conditions: 10 μg/mL in PBS, 25° C.
measure: hydrodynamic size, first (or single) peak (nm)

>>> observed_measurement("GQVEVHFRGVW (CD6.PD3)")
630
>>> observed_measurement("GTVEVRLEASW [CD6.PD1]")
321
>>> observed_measurement("GRVEVLFRGSW (CD6 Pcon) [CD6.cons, reference compound]")
1636
>>> observed_measurement("GRVEVLYRGSW (DMBT-1.pbs1) [DMBT1.pbs1, reference compound]")
169
>>> observed_measurement("GRVEMLEHGEW [CD6.PD2]")
379
